Origin of values: PubChem BioAssay (NCI)

For each of the compounds below, state its growth.
# Test system: HOP-92 NSCLC
# PROCEDURE_TEXT: NCI-60 one-dose screen, 48 h (100 = growth as untreated, 0 = no growth, -100 = all killed)
# SETTINGS: 10 µM unless noted
About 83,000 compounds went through this panel and 20% of them were active in at least one assay; those are over-represented in the sample as a whole.
Answers are plain numbers, in %.

In: For the compound COc1ccc(C2CC(c3ccc(Nc4nc(Nc5ccc(F)cc5)nc(Nc5ccc(F)cc5)n4)cc3)=NN2C(C)=O)cc1 (configuration not stated) , report growth.
Out: -13.6

In: Query growth for `CCn1c2ccc(O)cc2c2c(C)c3c[n+](C(C)C)ccc3c(C)c21`
Out: 51.2

In: Determine its reported growth: `O=c1nc(Nc2nc3ccccc3s2)[nH]c(=O)c2ccccc12`
Out: 83.4

Fill in growth for each of the 5 compounds listed.
1. CC(C)[C@@]12C[C@@H](OC(=O)COC(=O)c3ccccc3)[C@@](C)(O1)[C@@H]1CC[C@@H](C)[C@H]1[C@@H]2OC(=O)/C=C/c1ccccc1
2. COP(=O)(OC)c1nnn(-c2cccc([N+](=O)[O-])c2)c1C
3. N#CCC1=NC(c2cccs2)=Nc2ccccc2S1
4. COc1ccc(C2=NN(C(=O)c3cc(OC)c(OC)c(OC)c3)C(c3ccc(N(C)C)cc3)C2)cc1 (configuration not stated)
5. N#Cc1c(N2CCOCC2)nc(=S)[nH]c1-c1ccccc1

Out:
1. 76.9
2. 119
3. 71.7
4. 21.6
5. -7.41

For each entry beneath this line, provide reported growth.
1. FC(F)(F)c1[nH]ncc1-c1nc2c(N3CCCCC3)cc3[nH]ncc3c2c2c1CCCC2
2. COc1cc(Nc2ncccc2NC(=O)c2cn(Cc3cccc(Oc4ccccc4)c3)nn2)cc(OC)c1
3. CCN1C(=O)N(CC)C2C1NN=c1s/c(=C\c3cc4ccccc4[nH]3)c(=O)n12 (configuration not stated)
4. CC1O[C@@H]2C[C@@](O)([C@H]1O)n1c3ccccc3c3c4c(c5c6ccccc6n2c5c31)C(=O)NC4=O (some centres not stated)

Out:
-10.2
98.4
-5.71
121

====

# Tested on: NCI-H460 lung
# PROCEDURE_TEXT: NCI-60 one-dose screen, 48 h
# SETTINGS: 10 µM unless noted
About 83,000 compounds went through this panel and 20% of them were active in at least one assay; those are over-represented in the sample as a whole. Active and inactive are the calls of the source. How the source made its calls: active means growth percent below 10; inactive means the rest.
Valid outcomes are listed here; reply with one: active, inactive

Reference set, count: 8
In: Could you check what this test reported for CC1(C)C2CC=C(/C=N/NC(=O)C3CCC(=O)N3)C1C2 (stereo not given) ?
Out: inactive

In: Record lookup: outcome of this test for `Nc1c(C(=O)O)cc(Cl)cc1[N+](=O)[O-]` ?
Out: inactive

In: # outcome recorded in this test, key = `CCC(CC)(N(CC(=O)O)CC(=O)O)C(CC)(CC)N(CC(=O)O)CC(=O)O`
Out: inactive

In: I'd appreciate the recorded outcome for `CCOC(=O)C/C(=N\Nc1cc(=O)[nH]c2ccc(Cl)cc12)C(=O)OCC` from this test.
Out: inactive

In: Hi, do you know how `CCOC(=O)c1c(C)c2c(n1C)CSc1cc(S(=O)(=O)c3ccccc3)c(=O)[nH]c1-2` came out in this test?
Out: active

In: Assay result, entry `O=C1Nc2ccc(F)cc2/C1=N/c1nnc(Sc2ccccc2)s1` — outcome?
Out: inactive

In: # outcome recorded in this test, key = COc1ccc(C2C(C#N)=C(N)Oc3c2sc2c(Br)cccc32)cc1 (stereo not given)
Out: inactive

In: Short answer needed: outcome of this test for `COc1cc(C(=O)c2c(-c3ccccc3)oc3c(OC)cccc23)cc(OC)c1O` ?
Out: active

Continuing:
In: Given COc1cc(C2C3=C(COC3=O)N(CCO)c3cc4c(cc32)OCCO4)cc(OC)c1OC (stereo not given) , state the outcome it received in this test.
Out: active

In: Dear all, I need the recorded test outcome for CC(O)c1ncc(/C=C2\SC(=S)N(Cc3ccccc3)C2=O)s1 (stereo not given) , thank you.
Out: inactive

In: Tell me the assay call for COc1ccc(C2CC(c3ccc4c(c3)OCO4)=Nc3c(N)ncnc3N2)cc1 (stereo not given) please.
Out: inactive

====

# System: U251 CNS
# PROCEDURE_TEXT: NCI-60 one-dose screen, 48 h (100 = growth as untreated, 0 = no growth, -100 = all killed)
# SETTINGS: 10 µM unless noted
This is part of a sample that, as a whole, favours compounds with a hit. Of some 83,000 tested, about 20% had one in any assay.
VALUE_TYPE: growth (%)
Answers are plain numbers, in %.

In: Look up and report growth, with U251 CNS as system, for `CCC(CC)(N(CC(=O)O)CC(=O)O)C(CC)(CC)N(CC(=O)O)CC(=O)O`
Out: 102

In: Fill: growth (U251 CNS) for this molecule `COc1ccc(Cc2cnc(NC(=O)c3sc4ccccc4c3Cl)s2)cc1`
Out: 20.8

In: Give U251 CNS growth for the following molecule: `CCn1c2ccc(O)cc2c2c(C)c3c[n+](C(C)C)ccc3c(C)c21`
Out: 13.5

List the reported growth of each molecule below.
1. CN(C)c1ccc(/C=C/C(=O)c2ccc(Nc3nc(Nc4ccc(F)cc4)nc(Nc4ccc(Cl)cc4)n3)cc2)cc1
2. COc1ccc2c(c1)c(-c1nonc1-c1cn(C)c3ccc(OC)cc13)cn2C
3. COc1cccc(OC)c1Oc1c(-c2nc3ccccc3s2)c(C)nn1-c1ccccc1
4. CCn1cc(C(=O)NN=C2CCCCCC2)c(=O)c2ccc(C)nc21

Out:
1. 67.9
2. 33.7
3. 84.8
4. 94.6

Would you be so kind as to report growth for each listed record?
1. Cc1ccc(-c2nc(C#N)c(S(=O)(=O)NCCO)o2)cc1
2. Cn1c(=O)c2c(c3ccccc31)OC(N)=C(C#N)C21C(=O)c2ccccc2C1=O
3. Cc1[nH]c(/C=C/C(=O)c2ccc(C(F)(F)F)c(F)c2)c(C)c1C(=O)NCC(C)C
4. Nc1c(C(=O)Nc2cccc3ncccc23)sc2nc3c(cc12)C(=O)CCC3
5. CC(C)c1ccc(-n2c(=S)[nH]c3sc4c(c3c2=O)CCC(=O)C4)cc1
6. CCOC(=O)C1CCN(c2ccc(N3C[C@@H](CNCc4ccc(C(=N)N)cc4)OC3=O)cc2)CC1
7. COc1ccc(C2=C/C(=C\c3ccc(Cl)cc3)C(=O)N2/N=C/c2ccc(Cl)cc2)cc1
8. Cc1[nH]c(C(=O)Nc2ccc(C(N)=O)cc2NC(C)C)c(Cl)c1Cl

Out:
1: 74; 2: 101; 3: 100; 4: 57.5; 5: 11.8; 6: 104; 7: 84.5; 8: 91.4

In: Look up and report growth, with U251 CNS as system, for `CC1(C)CC2=C3C=C[C@@H]4[C@@]5(C)CC[C@H](O)C(C)(C)[C@@H]5CC[C@@]4(C)[C@]3(C)CC[C@@]2(C(=O)O)CC1=O`
Out: 32.3

====

Would you mind telling me the reported growth of each entry?
# Tested on: T-47D breast
# PROCEDURE_TEXT: NCI-60 one-dose screen, 48 h (100 = growth as untreated, 0 = no growth, -100 = all killed)
# SETTINGS: 10 µM unless noted
About 83,000 compounds went through this panel and 20% of them were active in at least one assay; those are over-represented in the sample as a whole.
Numbers only, in %.

As a guide, the following entries are already answered.
In: Give reported growth value for `CCCCCn1sc(=O)n(Cc2ccc(CNC(=O)OCc3ccc4c(Cl)cc(Cl)c(O)c4n3)cc2)c1=O`
Out: 60.8

In: Give growth for the following compound: `CCCCCCCC/C=C\CCCCCCCCOc1ccccc1CC(=O)NCC[N+]1(C)CCCCC1`
Out: 59.9

In: Supply recorded growth for `COc1ccc(OC)c(Nc2nnc(-c3ccc(Cl)cc3)o2)c1` here.
Out: 59.9

Kindly review the next compound as well.
In: Query growth for `Cc1ccc(-c2nc(C(Cl)Cl)nc3cc(C)nn23)cc1`
Out: 40.9

====

What growth was measured for each of the following?
# Test system: RPMI-8226 leukemia
# PROCEDURE_TEXT: NCI-60 one-dose screen, 48 h (100 = growth as untreated, 0 = no growth, -100 = all killed)
# SETTINGS: 10 µM unless noted
# Procedure: Growth inhibition of the RPMI-8226 human tumor cell line is measured as a screen for anti-cancer activity. Cells are grown in 96 well plates and exposed to the test compound for 48 hours. Compounds are tested at a single concentration, which is 10^-5 M for most compounds. The reported endpoint is percent growth (GI% or GIPRCNT), where numbers from 0 - 100% represent growth inhibition, and numbers from -100% - 0 represent cell death. For example, a value of 40 represents 60% growth inhibition. […]
The panel holds about 83,000 compounds, 20% with a hit somewhere; the sample as a whole holds those more often.
One number for each entry, in %.

In: Please indicate growth recorded for `Cn1c(=O)c2c(c3ccccc31)OC(N)=C(C#N)C21C(=O)c2ccccc2C1=O`
Out: 94.8

// batch mode: one growth value per listed entry
1. O=C(CCC(=O)c1nc2ncccc2[nH]1)NN1C(=O)CSC1c1ccc(Cl)cc1 (stereo unspecified)
2. COc1ccc(C2=CN3CC=CCC3CC2=O)cc1 (stereo unspecified)
3. CCCCN1C(=O)/C(=c2\sc3n(c2=O)NC2C(N=3)N(CC)C(=O)N2CC)c2ccccc21 (stereo unspecified)
4. COc1cccc(C(=O)OCC(O)C(=O)NC23CC4CC(CC(C4)C2)C3)c1 (stereo unspecified)
5. COc1ccc2[nH]cc(-c3nc(-c4cn(C)c5ccncc45)cs3)c2c1

Out:
87.1
97.9
60.2
101
-40.3
